- Tested on: Peritoneal macrophage
- test summary: Induction of NO generation in Leishmania donovani MHOM/IN/AG/83 infected BALB/c mouse peritoneal macrophages assessed as nitrite levels after 48 hrs by Griess assay relative to untreated control; note: test concentration or dose not given here
- Assay type: functional
- conditions used: record 2
Could you please report measured Activity for the items listed next?
Reply with the number, then its unit.

Go through the list and state Activity for each entry.
1. C=CCc1ccc(OC(=O)c2ccc([N+](=O)[O-])cc2)c(OC)c1
2. C=CCc1ccc(OC(=O)[C@@H]2CCCN2)c(OC)c1
3. C=CCc1ccc(OCCCCCC)c(OC)c1
4. C=CCc1ccc(OC(=O)COc2ccccc2)c(OC)c1
5. C=CCc1ccc(OCCCCCCCCCC)c(OC)c1
6. C=CCOc1ccc(CC=C)cc1OC

Output line:
["27.28 µM", "21.87 µM", "20.81 µM", "39.02 µM", "26.17 µM", "13.86 µM"]

###

- test summary: Therapeutic index, ratio of EC50 for BALB/c mouse peritoneal macrophages to EC50 for Leishmania donovani MHOM/IN/AG/83 amastigotes
- Assay type: toxicity
- conditions used: read-out: Ratio EC50
measured metric: selectivity ratio

Here are 5 compounds together with their reported answers.
- compound: "C=CCc1ccc(OC(=O)CCCCCC)c(OC)c1"
  selectivity ratio: 8.3
- compound: "C=CCc1ccc(OC(=O)CCCCCCCCCCCCCCCCC)c(OC)c1"
  selectivity ratio: 82.2
- compound: "C=CCc1ccc(OC(=O)C2CCNCC2)c(OC)c1"
  selectivity ratio: 4.66
- compound: "C=CCc1ccc(OC(=O)CCCCCCCCC)c(OC)c1"
  selectivity ratio: 12.4
- compound: "C=CCc1ccc(OC(=O)c2ccccc2Cl)c(OC)c1"
  selectivity ratio: 4.79

For each listed entry, give its selectivity ratio.
1. C=CCc1ccc(OC(=O)CCCCCCCC)c(OC)c1
2. C=CCc1ccc(OC(C)=O)c(OC)c1 [EUGENYL ACETATE]

Output line:
[6.52, 3.59]

List reported selectivity ratio for each of these compounds:
1. C=CCc1ccc(OCCC)c(OC)c1
2. C=CCc1ccc(OC(=O)COc2ccccc2)c(OC)c1
3. C=CCc1ccc(OCC=C(C)C)c(OC)c1
4. C=CCOc1ccc(CC=C)cc1OC
5. C=CCc1ccc(OC(=O)CCCCC)c(OC)c1

Output line:
0.71
55.1
2.38
2.95
4.76

###

- test summary: Therapeutic index, ratio of EC50 for BALB/c mouse peritoneal macrophages to EC50 for Leishmania donovani MHOM/IN/AG/83 amastigotes
- Assay type: toxicity
- conditions used: read-out: Ratio EC50
measured metric: selectivity ratio

Here is how some molecules turned out for selectivity ratio.
- molecule: "C=CCc1ccc(OCCCC)c(OC)c1 [N-BUTYLEUGENOL]"
  selectivity ratio: 2.35
- molecule: "C=CCc1ccc(OC(=O)c2ccc(F)cc2)c(OC)c1"
  selectivity ratio: 5.24

Take each entry in turn and give its selectivity ratio.
1. C=CCc1ccc(OC(=O)Cc2ccccc2)c(OC)c1
2. C=CCc1ccc(OCCCCCCCCCCCCCCCC)c(OC)c1

Output line:
1. 41.8
2. 14.5

###

- test summary: Ratio of therapeutic index of test compound to Amphotericin B by measuring ratio of IC50 for BALB/c mouse peritoneal macrophages to IC50 for Leishmania donovani MHOM/IN/AG/83 amastigotes
- Assay type: toxicity
measured metric: Ratio

Looking up "C=CCc1ccc(OC(=O)CCCCCCCCCCCCCCCCC)c(OC)c1" , I found its Ratio recorded as 10 to 13

###

- System: Peritoneal macrophage
- test summary: Cytotoxicity against BALB/c mouse peritoneal macrophages after 48 hrs by MTT assay
- Assay type: cell-based
Please go through the items and note down their EC50.
Numbers only, in µM.

Illustrative cases are given below, each with its answer.
- compound: "C=CCc1ccc(OC(=O)CCCCCC)c(OC)c1"
  EC50 / µM: 491
- compound: "C=CCc1ccc(O)c(OC)c1 [EUGENOL]"
  EC50 / µM: 476
- compound: "C=CCc1ccc(OC(=O)[C@@H]2CCCN2)c(OC)c1"
  EC50 / µM: 326
- compound: "C=CCc1ccc(OCCCCCCC)c(OC)c1"
  EC50 / µM: 197
- compound: "C[C@@H]1[C@H](O)[C@@H](C)/C=C/C=C/C=C/C=C/C=C/C=C/C=C/[C@H](O[C@@H]2O[C@H](C)[C@@H](O)[C@H](N)[C@@H]2O)C[C@@H]2O[C@](O)(C[C@@H](O)C[C@@H](O)[C@H](O)CC[C@@H](O)C[C@@H](O)CC(=O)O[C@H]1C)C[C@H](O)[C@H]2C(=O)O [AMPHOTERICIN B]"
  EC50 / µM: 9.18

List EC50 for every entry below, keeping the order given.
1. C=CCc1ccc(OCCCCCCCCCC)c(OC)c1
2. C=CCc1ccc(OC(=O)c2ccc(F)cc2)c(OC)c1
3. C=CCc1ccc(OCCCC)c(OC)c1 [N-BUTYLEUGENOL]
4. C=CCc1ccc(OC(=O)COc2ccccc2)c(OC)c1
5. C=CCc1ccc(OC(=O)CCCCCCCCC)c(OC)c1
6. C=CCc1ccc(OCCCCC)c(OC)c1
7. C=CCc1ccc(OC(=O)c2ccc([N+](=O)[O-])cc2)c(OC)c1

Output line:
1. 272
2. 400
3. 345
4. 391
5. 404
6. 164
7. 244

Would you be so kind as to report EC50 for each listed record?
1. C=CCc1ccc(OC(=O)CCCCC)c(OC)c1
2. C=CCc1ccc(OCCCCCCCC)c(OC)c1
3. C=CCc1ccc(OC(=O)CCCCCCC)c(OC)c1

Output line:
[477, 393, 565]

###

- test summary: Therapeutic index, ratio of IC50 for mouse RAW264.7 cells to IC50 for Leishmania donovani MHOM/IN/AG/83 promastigotes
- Type: toxicity
- conditions used: read-out: Ratio IC50
Kindly state selectivity ratio for each of the entries shown.
One number for each entry.

- structure as smiles: "C=CCc1ccc(OCC=C(C)C)c(OC)c1"
  readout value: 1.48
- structure as smiles: "C=CCc1ccc(OCCCCCCCCCC)c(OC)c1"
  readout value: 8.61
- structure as smiles: "C=CCOc1ccc(CC=C)cc1OC"
  readout value: 1.64

Batch lookup, selectivity ratio per entry.
1. C=CCc1ccc(OC(=O)CCCCCCC)c(OC)c1
2. C=CCc1ccc(OC(=O)CCCCCC)c(OC)c1
3. C=CCc1ccc(OC(=O)CCCCC)c(OC)c1
4. C=CCc1ccc(OC(=O)c2ccc(F)cc2)c(OC)c1

Output line:
1: 8.95; 2: 4.95; 3: 3.21; 4: 5.93

Quick request: selectivity ratio for each listed item, please.
1. C=CCc1ccc(OCCC)c(OC)c1
2. C=CCc1ccc(OC(=O)c2cccc([N+](=O)[O-])c2)c(OC)c1
3. C=CCc1ccc(OC(=O)c2ccc([N+](=O)[O-])cc2)c(OC)c1
4. C=CCc1ccc(OC(=O)c2ccccc2Cl)c(OC)c1
5. C=CCc1ccc(OCCCCC)c(OC)c1
6. C=CCc1ccc(OCCCC)c(OC)c1
7. C=CCc1ccc(OC(=O)Cc2ccccc2)c(OC)c1

Output line:
[0.83, 3.33, 3.18, 3.91, 1.96, 1.07, 11.8]

###

- System: Peritoneal macrophage
- test summary: Cytotoxicity against BALB/c mouse peritoneal macrophages after 48 hrs by MTT assay
- Assay type: cell-based
measured metric: EC50 (µM)
One number for each entry, in µM.

- compound: "C=CCc1ccc(OC)c(OC)c1 [METHYLEUGENOL]"
  measured target: "Peritoneal macrophage"
  measured metric: "EC50"
  units symbol: "µM"
  readout value: 485
- compound: "C=CCc1ccc(OCC=C(C)C)c(OC)c1"
  measured target: "Peritoneal macrophage"
  measured metric: "EC50"
  units symbol: "µM"
  readout value: 372

Entry under test: "C=CCc1ccc(OC(=O)Cc2ccccc2)c(OC)c1" . Its EC50 was 385

###

- Tested on: Peritoneal macrophage
- test summary: Cytotoxicity against BALB/c mouse peritoneal macrophages after 48 hrs by MTT assay
- Assay type: cell-based
Please provide measured pEC50 for the entries that follow.
Numbers only, as −log10 of the molar value.

- molecule: "C=CCOc1ccc(CC=C)cc1OC [ALLYLEUGENOL]"
  pEC50: 3.45
- molecule: "C=CCc1ccc(OC(=O)c2cccc([N+](=O)[O-])c2)c(OC)c1"
  pEC50: 3.66
- molecule: "C=CCc1ccc(OCCCCCCCCC)c(OC)c1"
  pEC50: 3.49
- molecule: "C=CCc1ccc(OCC)c(OC)c1 [ETHYLEUGENOL]"
  pEC50: 4.04

Consider the additional molecule presented here.
pEC50 for C=CCc1ccc(OCCC)c(OC)c1 [PROPYLEUGENOL] is 3.96

###

- test summary: Therapeutic index, ratio of EC50 for BALB/c mouse peritoneal macrophages to EC50 for Leishmania donovani MHOM/IN/AG/83 amastigotes
- Type: toxicity
- conditions used: read-out: Ratio EC50
Entries are grouped by selectivity ratio into these classes: low interval = under 6, middle interval = from 6 up to 8, high interval = 8 and over

Solved entries:
- structure as smiles: "C=CCc1ccc(OCCCCCCCC)c(OC)c1"
  answer label: "high interval"
- structure as smiles: "C=CCc1ccc(OC(=O)c2cccc([N+](=O)[O-])c2)c(OC)c1"
  answer label: "high interval"
- structure as smiles: "C=CCc1ccc(OC(=O)c2ccc([N+](=O)[O-])cc2)c(OC)c1"
  answer label: "high interval"
- structure as smiles: "C=CCc1ccc(OC(=O)CCC)c(OC)c1"
  answer label: "low interval"
- structure as smiles: "C=CCc1ccc(OC(=O)CCCCCCCCCCCCCCC)c(OC)c1"
  answer label: "high interval"

Input line: Note: place this molecule into its band. Item: "C=CCc1ccc(OCCCCCCC)c(OC)c1"
Output line: low interval

Input line: Please report the category associated with "C=CCc1ccc(OCCCCCCCCC)c(OC)c1" , nothing else.
Output line: middle interval

Input line: Band assignment needed for "C=CCc1ccc(OCCCCCC)c(OC)c1" please.
Output line: middle interval

Input line: Looking at "C=CCc1ccc(OCCCCC)c(OC)c1" , which class would you pick?
Output line: low interval

Input line: Which category fits this record: "C=CCc1ccc(OC(=O)CCCCCCC)c(OC)c1"
Output line: high interval
